test system: Staphylococcus aureus; test: Antibacterial activity against Staphylococcus aureus ACH-0231 isolate with gyrA Ser84Leu, Glu88Lys and grlA Ser80Tyr, Glu84Gly mutant after 24 hrs by broth microdilution method; format: functional
Measurement Kind: MIC (µg/mL)

compound="COc1c(N2C[C@@H]3CCCN[C@@H]3C2)c(F)cc2c(=O)c(C(=O)O)cn(C3CC3)c12 [MOXIFLOXACIN]" value_operator== reported_result=32
compound=COc1c(-c2ccnc(C)c2)c(F)cc2c(=O)c3c(=O)[nH]sc3n(C3CC3)c12 value_operator== reported_result=2
compound=COc1c(-c2cc(C)nc(C)c2)c(F)cc2c(=O)c3c(=O)[nH]sc3n(C3CC3)c12 value_operator== reported_result=1
compound=Cc1cc(-c2cc3c(cc2F)c(=O)c2c(=O)[nH]sc2n3C2CC2)ccn1 value_operator== reported_result=16
compound="CC[n+]1c(-c2ccccc2)c2cc(N)ccc2c2ccc(N)cc21.[Br-] [HOMIDIUM BROMIDE]" value_operator== reported_result=16
compound="CO/N=C1\\CN(c2nc3c(cc2F)c(=O)c(C(=O)O)cn3C2CC2)CC1CN (stereo unspecified) [GEMIFLOXACIN]" value_operator=> reported_result=64
